Property: koff; scope: individual binders
MEASUREMENT_TARGET: T1, human soluble DLL4 (R&D systems catalog #1056-D4-050) (human, UniProt Q9NR61 27-524)
T1 construct: Catalog number as printed; perhaps the same product as #1506-D4; also called antigen DLL4
T1 sequence (Q9NR61 27-524 limits assumed): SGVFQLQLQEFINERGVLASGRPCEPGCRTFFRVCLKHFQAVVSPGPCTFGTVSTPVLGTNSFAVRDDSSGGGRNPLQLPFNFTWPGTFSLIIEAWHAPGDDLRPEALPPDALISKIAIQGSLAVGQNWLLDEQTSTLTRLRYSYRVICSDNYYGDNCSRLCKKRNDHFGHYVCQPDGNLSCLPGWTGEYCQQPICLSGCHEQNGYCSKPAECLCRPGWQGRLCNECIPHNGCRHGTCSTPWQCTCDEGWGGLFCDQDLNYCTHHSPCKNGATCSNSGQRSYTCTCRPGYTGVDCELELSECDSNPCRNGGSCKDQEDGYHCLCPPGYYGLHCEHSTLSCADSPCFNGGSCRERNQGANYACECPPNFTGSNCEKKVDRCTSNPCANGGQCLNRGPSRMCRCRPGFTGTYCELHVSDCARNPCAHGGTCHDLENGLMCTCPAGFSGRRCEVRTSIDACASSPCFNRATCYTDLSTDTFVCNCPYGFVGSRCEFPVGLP
EXPERIMENTAL_DETAILS: Biacore T100, antibody immobilised, soluble human DLL4 as analyte
Description: For Biacore analysis, each purified anti-DLL4 antibody was immobilized on a CM5 sensor chip within a T100 using standard amine coupling. Immobilization levels were kept below 200 RU. […] The response data were globally fitted with a simple 1:1 interaction model and Table 20 summarizes the kₐ, kd and KD estimates obtained for the anti-DLL4 antibodies when binding to human soluble DLL4 was assessed.
Numeric answer only, unit s⁻¹ assumed.

21H3 IgG1 (antibody, V domains shown, Formatted as IgG1) VH: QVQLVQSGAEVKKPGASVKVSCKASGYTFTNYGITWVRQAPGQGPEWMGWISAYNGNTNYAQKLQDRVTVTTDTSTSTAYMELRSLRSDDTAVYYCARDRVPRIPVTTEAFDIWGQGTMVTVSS VL: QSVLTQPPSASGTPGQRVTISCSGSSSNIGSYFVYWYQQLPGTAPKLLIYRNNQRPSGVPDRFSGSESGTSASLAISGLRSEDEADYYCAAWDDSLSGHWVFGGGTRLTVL    0.000171
4B4 IgG2 (antibody, V domains shown, Formatted as IgG2) VH: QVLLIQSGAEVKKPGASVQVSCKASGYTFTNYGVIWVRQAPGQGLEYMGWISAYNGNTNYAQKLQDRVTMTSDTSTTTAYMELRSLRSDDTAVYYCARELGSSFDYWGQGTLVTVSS VL: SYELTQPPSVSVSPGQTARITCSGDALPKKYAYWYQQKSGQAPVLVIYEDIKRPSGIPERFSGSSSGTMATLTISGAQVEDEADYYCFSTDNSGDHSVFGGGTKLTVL    3.6e-05

Moving on to another binder below.
Exercise: Entry 4B4 IgG1 (antibody, V domains shown, Formatted as IgG1) VH: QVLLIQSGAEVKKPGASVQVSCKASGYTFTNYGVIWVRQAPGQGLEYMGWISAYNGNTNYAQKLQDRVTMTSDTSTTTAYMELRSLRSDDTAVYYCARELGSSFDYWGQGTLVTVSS VL: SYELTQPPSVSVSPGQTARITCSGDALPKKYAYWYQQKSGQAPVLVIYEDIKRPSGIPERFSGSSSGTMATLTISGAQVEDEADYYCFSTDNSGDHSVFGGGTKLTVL needs its koff filled in; supply it.
Solution: 2.01e-05
